Below, each of the molecules is paired with its reported logD at 24 h value.
Experimental protocol: Octanol-buffer partition coefficient, log D of the compound at pH 7.4 measured after 24 hrs by HPLC based shake flask assay
Assay type: physicochemical
Result type: logD at 24 h

Structure	Readout value
O=C(Cn1c(=O)c(/C=C/c2ccc(O)cc2)nc2ccccc21)NS(=O)(=O)C(F)(F)F	1.73
COc1cc(/C=C/c2nc3ccccc3n(CC(=O)NS(=O)(=O)C(F)(F)F)c2=O)ccc1O	1.05
COc1cc(/C=C/c2nc3ccccc3n(CC(=O)O)c2=O)ccc1O	-2.66
O=C(O)Cn1c(=O)c(/C=C/c2ccc(O)c(O)c2)nc2ccccc21	-2.59
O=C(Cn1c(=O)c(/C=C/c2ccc(O)c(O)c2)nc2ccccc21)NS(=O)(=O)C(F)(F)F	-1.08
O=C(O)Cn1c(=O)c(/C=C/c2ccc(O)cc2)nc2ccccc21	-1.63
O=C(Cn1c(=O)c(/C=C/c2ccccc2)nc2ccccc21)NS(=O)(=O)C(F)(F)F	2.88
O=C(O)Cn1c(=O)c(/C=C/c2ccccc2)nc2ccccc21	0.05

src = ChEMBL document CHEMBL4400570
